experiment.summary: in vitro
test.parameters: human, caco-2 homogenate s9
measured.endpoint: metabolised at 1 h, 5 µM (%)
Just the number please, in %, no unit attached.

CCCC(=O)OC(OC(=O)NC[C@H](CC(=O)O)c1ccc(Cl)cc1)C(C)C (stereo partly drawn)
67

In one line, give reported metabolised at 1 h, 5 µM of the entry CC(C)C(OC(=O)NC[C@H](CC(=O)O)c1ccc(Cl)cc1)OC(=O)C(C)(C)C (stereo partly drawn) .
49

Specify measured metabolised at 1 h, 5 µM for CCCC(=O)O[C@H](CCC)OC(=O)NC[C@H](CC(=O)O)c1ccc(Cl)cc1 .
95

---

experiment.summary: in vitro
test.parameters: human, liver s9, % of Prodrug Remaining
measured.endpoint: remaining at 1 h, 2 µM (%)
Write down the numeric answer in % and omit the unit.

CC(C)C(OC(=O)NC[C@H](CC(=O)O)c1ccc(Cl)cc1)OC(=O)C(C)(C)C (stereo partly drawn)
61
CCCC(=O)OC(OC(=O)NC[C@H](CC(=O)O)c1ccc(Cl)cc1)C(C)C (stereo partly drawn)
8

Specify measured remaining at 1 h, 2 µM for CCCC(=O)O[C@H](CCC)OC(=O)NC[C@H](CC(=O)O)c1ccc(Cl)cc1 .
2

These measurements were taken from patent EP1660440B1.
